Value source: PubChem BioAssay (Tox21)

test: qHTS RealTime-Glo MT Cell Viability Assay in HEK293 cells - 8 hour (AID 1224887); conditions: RealTime-Glo luminescence; series mostly up to 76.8 µM; also: top concentration of the series differs between compounds; nearly all actives have a fitted effect of over 50% in size
Results filed as inconclusive are left out. The source made the active and inactive calls. Calls follow the shape of the dose curve; as a rule, active = well fitted cell-killing curve with a large enough effect in the repeat runs; inconclusive = weak or mixed curves, or effect the other way; inactive = flat fitted curve, though single readings scatter.
readout: outcome

CCCCOC(=O)CC(CC(=O)OCCCC)(OC(C)=O)C(=O)OCCCC = inactive
O=C(O)CS = inactive
Oc1ccc(/C=C/c2cc(O)cc(O)c2)cc1 = inactive
O=C(O)c1cc(N=Nc2ccc(S(=O)(=O)Nc3ccccn3)cc2)ccc1O = inactive

Please state, for each entry, its recorded outcome.
1. O=C(c1ccccc1)c1ccccc1
2. Nc1ccc(O)c(C(=O)O)c1
3. NNC(=O)c1ccncc1

// result
1. inactive
2. inactive
3. inactive
